Documented signal/ng across a set of binders
target: T1, integrin αVβ3 (UniProt P06756 31-992; P05106 27-718); experiment: ELISA, integrin coated, anti-MICA-HRP
T1 construct: Coated on the ELISA plate
T1 sequence (P06756 31-992, chain 1 of 2): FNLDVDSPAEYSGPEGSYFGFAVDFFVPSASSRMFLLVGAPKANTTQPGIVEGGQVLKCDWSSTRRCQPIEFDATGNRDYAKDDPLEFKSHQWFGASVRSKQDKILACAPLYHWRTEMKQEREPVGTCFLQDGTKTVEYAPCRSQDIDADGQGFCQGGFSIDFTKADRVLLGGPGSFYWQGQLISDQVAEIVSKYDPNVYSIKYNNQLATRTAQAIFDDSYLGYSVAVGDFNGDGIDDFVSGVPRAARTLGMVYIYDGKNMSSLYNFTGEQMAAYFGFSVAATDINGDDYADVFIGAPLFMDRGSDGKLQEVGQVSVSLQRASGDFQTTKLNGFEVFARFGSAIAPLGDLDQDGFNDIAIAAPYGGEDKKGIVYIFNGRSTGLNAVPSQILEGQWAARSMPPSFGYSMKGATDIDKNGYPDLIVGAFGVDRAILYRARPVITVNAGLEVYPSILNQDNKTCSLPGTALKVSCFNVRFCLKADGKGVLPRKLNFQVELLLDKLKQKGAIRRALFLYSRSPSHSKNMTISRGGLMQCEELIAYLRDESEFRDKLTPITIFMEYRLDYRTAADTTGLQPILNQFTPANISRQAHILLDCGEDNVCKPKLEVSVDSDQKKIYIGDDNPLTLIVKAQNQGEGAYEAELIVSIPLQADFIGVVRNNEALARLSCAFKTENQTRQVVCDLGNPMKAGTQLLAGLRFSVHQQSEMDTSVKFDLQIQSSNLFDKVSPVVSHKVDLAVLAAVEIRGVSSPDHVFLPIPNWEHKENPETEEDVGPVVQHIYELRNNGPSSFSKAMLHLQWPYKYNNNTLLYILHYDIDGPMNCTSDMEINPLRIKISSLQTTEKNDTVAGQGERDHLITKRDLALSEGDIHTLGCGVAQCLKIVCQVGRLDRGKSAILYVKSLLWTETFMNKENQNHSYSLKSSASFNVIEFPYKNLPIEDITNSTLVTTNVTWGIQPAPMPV
T1 sequence (P05106 27-718, chain 2 of 2): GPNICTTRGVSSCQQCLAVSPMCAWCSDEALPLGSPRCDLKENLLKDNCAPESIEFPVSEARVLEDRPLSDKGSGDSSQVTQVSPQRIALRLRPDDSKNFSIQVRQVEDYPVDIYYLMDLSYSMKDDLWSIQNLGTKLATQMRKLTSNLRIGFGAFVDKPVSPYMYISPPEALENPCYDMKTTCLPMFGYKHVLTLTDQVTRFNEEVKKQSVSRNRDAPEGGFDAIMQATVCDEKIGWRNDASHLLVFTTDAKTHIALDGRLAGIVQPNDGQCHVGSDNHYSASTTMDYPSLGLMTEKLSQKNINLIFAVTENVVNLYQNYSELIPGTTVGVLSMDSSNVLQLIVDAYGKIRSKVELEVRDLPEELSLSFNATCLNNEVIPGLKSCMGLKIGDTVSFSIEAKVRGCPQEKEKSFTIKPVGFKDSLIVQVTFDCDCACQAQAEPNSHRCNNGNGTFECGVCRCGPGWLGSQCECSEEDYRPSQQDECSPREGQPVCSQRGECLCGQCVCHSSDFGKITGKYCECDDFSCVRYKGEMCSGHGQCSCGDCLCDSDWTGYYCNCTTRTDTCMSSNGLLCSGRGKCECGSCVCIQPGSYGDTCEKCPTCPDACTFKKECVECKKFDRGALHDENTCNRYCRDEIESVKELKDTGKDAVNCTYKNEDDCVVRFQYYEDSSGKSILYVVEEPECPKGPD
Result type: signal/ng

• soluble MICA generated by pKK51 (extended loop 5.3sp in loop 3) (designed binder) EPHSLRYNLTVLSWDGSVQSGFLTEVHLDGQPFLRCDRQKCRAKPQGQWAEDVLGNKTWDRETRDLTGNGKDLRMTLAHIKDQKEGLHSLQEIRVCEIHEDNSTRSSQHFYYDGELFLSQNLETKEWTMPQSSRAQTLAMNVRNFLKEDAMKTKTHYHAMHADCLQELRRYLKSGVVLRRTVPPMVNVTRSEASEGNITVTCRASGFYPWNITLSWRQDGVSLSHDTQQWGDVLPDGNGTYQTWVATRISGGSGGGSHLARGDDLTYSGGSGGGCYMEHSGNHSTHPVPSGK = 7.2 signal/ng
• soluble MICA generated by pKK35 (His10sp in loop 3) (designed binder) EPHSLRYNLTVLSWDGSVQSGFLTEVHLDGQPFLRCDRQKCRAKPQGQWAEDVLGNKTWDRETRDLTGNGKDLRMTLAHIKDQKEGLHSLQEIRVCEIHEDNSTRSSQHFYYDGELFLSQNLETKEWTMPQSSRAQTLAMNVRNFLKEDAMKTKTHYHAMHADCLQELRRYLKSGVVLRRTVPPMVNVTRSEASEGNITVTCRASGFYPWNITLSWRQDGVSLSHDTQQWGDVLPDGNGTYQTWVATRISGGSGGGSHHHHHHHHHHSGGSGGGCYMEHSGNHSTHPVPSGK = 2.46 signal/ng
• soluble MICA generated by pKK48 (extended loop 3.2sp in loop 3) (designed binder) EPHSLRYNLTVLSWDGSVQSGFLTEVHLDGQPFLRCDRQKCRAKPQGQWAEDVLGNKTWDRETRDLTGNGKDLRMTLAHIKDQKEGLHSLQEIRVCEIHEDNSTRSSQHFYYDGELFLSQNLETKEWTMPQSSRAQTLAMNVRNFLKEDAMKTKTHYHAMHADCLQELRRYLKSGVVLRRTVPPMVNVTRSEASEGNITVTCRASGFYPWNITLSWRQDGVSLSHDTQQWGDVLPDGNGTYQTWVATRISGGSGGGSTSRGDHPRTQSGGSGGGCYMEHSGNHSTHPVPSGK = 6.08 signal/ng
• soluble MICA generated by pKK41 (loop 5.2 in loop 1) (designed binder) HHHHHHEPHSLRYNLTVLSWDGSVQSGFLTEVHLDGQPFLRCDRQKCRAKPQGQWAEDVLGNKTWDRETRDLTGNGKDLRMTLAHIKDQKEGLHSLQEIRVCEIHEDNSTRSSQHFYYDGELFLSQNLETEEWTMPQSSRAQTLAMNVRNFLKEDAMKTKTHYHAMHADCLQELRRYLKSGVVLRRTVPPMVNVTRGDTFTQSVTCRASGFYPWNITLSWRQDGVSLSHDTQQWGDVLPDGNGTYQTWVATRICQGEEQRFTCYMEHSGNHSTHPVPSGK = 17.7 signal/ng
• soluble MICA generated by pKK46 (extended loop 5.1sp in loop 1) (designed binder) HHHHHHEPHSLRYNLTVLSWDGSVQSGFLTEVHLDGQPFLRCDRQKCRAKPQGQWAEDVLGNKTWDRETRDLTGNGKDLRMTLAHIKDQKEGLHSLQEIRVCEIHEDNSTRSSQHFYYDGELFLSQNLETEEWTMPQSSRAQTLAMNVRNFLKEDAMKTKTHYHAMHADCLQELRRYLKSGVVLRRTVPPMVNVTSGGSGGGSVTRGDTFTQSSGGSGGGVTCRASGFYPWNITLSWRQDGVSLSHDTQQWGDVLPDGNGTYQTWVATRICQGEEQRFTCYMEHSGNHSTHPVPSGK = 9.2 signal/ng
• soluble MICA generated by pKK44 (extended loop 3.2sp in loop 1) (designed binder) HHHHHHEPHSLRYNLTVLSWDGSVQSGFLTEVHLDGQPFLRCDRQKCRAKPQGQWAEDVLGNKTWDRETRDLTGNGKDLRMTLAHIKDQKEGLHSLQEIRVCEIHEDNSTRSSQHFYYDGELFLSQNLETEEWTMPQSSRAQTLAMNVRNFLKEDAMKTKTHYHAMHADCLQELRRYLKSGVVLRRTVPPMVNVTSGGSGGGSTSRGDHPRTQSGGSGGGVTCRASGFYPWNITLSWRQDGVSLSHDTQQWGDVLPDGNGTYQTWVATRICQGEEQRFTCYMEHSGNHSTHPVPSGK = 8.92 signal/ng
• soluble MICA generated by pKK40 (loop 5.1 in loop 1) (designed binder) HHHHHHEPHSLRYNLTVLSWDGSVQSGFLTEVHLDGQPFLRCDRQKCRAKPQGQWAEDVLGNKTWDRETRDLTGNGKDLRMTLAHIKDQKEGLHSLQEIRVCEIHEDNSTRSSQHFYYDGELFLSQNLETEEWTMPQSSRAQTLAMNVRNFLKEDAMKTKTHYHAMHADCLQELRRYLKSGVVLRRTVPPMVNVTVTRGDTFTQSVTCRASGFYPWNITLSWRQDGVSLSHDTQQWGDVLPDGNGTYQTWVATRICQGEEQRFTCYMEHSGNHSTHPVPSGK = 19.5 signal/ng
• soluble MICA generated by pKK50 (extended loop 5.1sp in loop 3) (designed binder) EPHSLRYNLTVLSWDGSVQSGFLTEVHLDGQPFLRCDRQKCRAKPQGQWAEDVLGNKTWDRETRDLTGNGKDLRMTLAHIKDQKEGLHSLQEIRVCEIHEDNSTRSSQHFYYDGELFLSQNLETKEWTMPQSSRAQTLAMNVRNFLKEDAMKTKTHYHAMHADCLQELRRYLKSGVVLRRTVPPMVNVTRSEASEGNITVTCRASGFYPWNITLSWRQDGVSLSHDTQQWGDVLPDGNGTYQTWVATRISGGSGGGSVTRGDTFTQSSGGSGGGCYMEHSGNHSTHPVPSGK = 5.85 signal/ng
• soluble MICA generated by pKK39 (loop 3.4 in loop 1) (designed binder) HHHHHHEPHSLRYNLTVLSWDGSVQSGFLTEVHLDGQPFLRCDRQKCRAKPQGQWAEDVLGNKTWDRETRDLTGNGKDLRMTLAHIKDQKEGLHSLQEIRVCEIHEDNSTRSSQHFYYDGELFLSQNLETEEWTMPQSSRAQTLAMNVRNFLKEDAMKTKTHYHAMHADCLQELRRYLKSGVVLRRTVPPMVNVTRSARGDSDHRVTCRASGFYPWNITLSWRQDGVSLSHDTQQWGDVLPDGNGTYQTWVATRICQGEEQRFTCYMEHSGNHSTHPVPSGK = 18 signal/ng
• soluble MICA generated by pKK37 (loop 3.2 in loop 1) (designed binder) HHHHHHEPHSLRYNLTVLSWDGSVQSGFLTEVHLDGQPFLRCDRQKCRAKPQGQWAEDVLGNKTWDRETRDLTGNGKDLRMTLAHIKDQKEGLHSLQEIRVCEIHEDNSTRSSQHFYYDGELFLSQNLETEEWTMPQSSRAQTLAMNVRNFLKEDAMKTKTHYHAMHADCLQELRRYLKSGVVLRRTVPPMVNVTRTSRGDHPRTQVTCRASGFYPWNITLSWRQDGVSLSHDTQQWGDVLPDGNGTYQTWVATRICQGEEQRFTCYMEHSGNHSTHPVPSGK = 22.4 signal/ng
